Would you mind telling me the reported pIC50 of each entry?
# SUBJECT_OF_TEST: cGMP PDE5 (Homo sapiens)
# Construct: The required PDE enzymes were isolated from a variety of sources, including human corpus cavernosum, human platelets; from tissue; host or cells: human corpus cavernosum tissue or human platelets
# TEST_DESCRIPTION: In vitro cGMP PDE5 inhibitory activity (IC50)
# Format: biochemical
# CONDITIONS: in vitro cGMP PDE5 inhibitory activity, Table 1; read-out: IC50
# pIC50 = -log10(concentration in molar units)

Data request: Entry CCCOc1ccc(S(C)(=O)=O)cc1-c1nc2c(CC)nn(Cc3ccccn3)c2c(=O)[nH]1 [Example 11] : reported pIC50 = ?
Data returned: 8.85

Data request: What do you get for CCCCOc1ccc(S(C)(=O)=O)cc1-c1nc2c(CC)nn(Cc3ccccn3)c2c(=O)[nH]1 [Example 5] ?
Data returned: 8.46

Data request: What do you get for CCCCOc1ccc(S(C)(=O)=O)cc1-c1nc2c(CC)n(C3CN(C(C)C)C3)nc2c(=O)[nH]1 [Example 19] ?
Data returned: 8.18

Data request: What do you get for CCc1c2nc(-c3cc(S(C)(=O)=O)ccc3OCC(C)C)[nH]c(=O)c2nn1C[C@H]1CCCN1C [Example 14] ?
Data returned: 8.08

Data request: What do you get for C=CCc1nc(CC)n2nc(-c3cc(S(C)(=O)=O)ccc3OCCCC)[nH]c(=O)c12 [Example 29] ?
Data returned: 8.17

Data request: What do you get for CCc1nn(Cc2ccccn2)c2c(=O)[nH]c(-c3cc(S(C)(=O)=O)ccc3OCC(C)C)nc12 [Example 3] ?
Data returned: 8.82

Data request: What do you get for CCCOc1ccc(S(C)(=O)=O)cc1-c1nc2c(CC)nn(CCN(C(C)C)C(C)C)c2c(=O)[nH]1 [Example 24] ?
Data returned: 8.17

Data request: What do you get for CCc1c2nc(-c3cc(S(C)(=O)=O)ccc3OCC(C)C)[nH]c(=O)c2nn1CCN1CCOCC1 [Example 10] ?
Data returned: 8.12

Data request: What do you get for CCCOc1ccc(S(C)(=O)=O)cc1-c1nc2c(CC)n(CCN(C(C)C)C(C)C)nc2c(=O)[nH]1 [Example 25] ?
Data returned: 8.27

* * *

Would you mind telling me the reported pIC50 of each entry?
# SUBJECT_OF_TEST: cGMP PDE5 (Homo sapiens, UniProt O76074)
# Construct: The required PDE enzymes were isolated from a variety of sources, including human corpus cavernosum, human platelets; from tissue; host or cells: human corpus cavernosum tissue or human platelets
# TEST_DESCRIPTION: In vitro cGMP PDE5 inhibitory activity (IC50)
# Type: biochemical
# CONDITIONS: in vitro cGMP PDE5 inhibitory activity, Table 1; read-out: IC50
# pIC50 = -log10(concentration in molar units)

Data request: Entry CCc1c2nc(-c3cc(S(C)(=O)=O)ccc3OCC(C)C)[nH]c(=O)c2nn1Cc1cccnn1 [Example 15] : reported pIC50 = ?
Data returned: 8.14

Data request: What do you get for CCc1c2nc(-c3cc(S(C)(=O)=O)ccc3OCC(C)C)[nH]c(=O)c2nn1C1CCN(C)CC1 [Example 21] ?
Data returned: 7.90

Data request: What do you get for CCCOc1ccc(S(C)(=O)=O)cc1-c1nc2c(CC)nn(C[C@@H]3CCCCN3C)c2c(=O)[nH]1 [Example 28] ?
Data returned: 8.44

Data request: What do you get for CCc1c2nc(-c3cc(S(C)(=O)=O)ccc3OCC(C)C)[nH]c(=O)c2nn1C1CCN(C(C)C)CC1 [Example 22] ?
Data returned: 7.87

Data request: What do you get for CCc1nn(Cc2nccn2C)c2c(=O)[nH]c(-c3cc(S(C)(=O)=O)ccc3OCC(C)C)nc12 [Example 7] ?
Data returned: 8.77

Data request: What do you get for CCc1nn(C[C@@H]2CCCN2C)c2c(=O)[nH]c(-c3cc(S(C)(=O)=O)ccc3OCC(C)C)nc12 [Example 13] ?
Data returned: 8.20

Data request: What do you get for CCCc1nn(C)c2c(=O)[nH]c(-c3cc(S(C)(=O)=O)ccc3OCC)nc12 [Example 1] ?
Data returned: 8.25

Data request: What do you get for CCc1c2nc(-c3cc(S(C)(=O)=O)ccc3OCC(C)C)[nH]c(=O)c2nn1Cc1ccccn1 [Example 17] ?
Data returned: 8.32

Data request: What do you get for CCCOc1ccc(S(C)(=O)=O)cc1-c1nc2c(CC)n(CC3CC3)nc2c(=O)[nH]1 [Example 12] ?
Data returned: 9.00

Data request: What do you get for CCCCOc1ccc(S(C)(=O)=O)cc1-c1nc2c(CC)n(CCOC)nc2c(=O)[nH]1 [Example 2] ?
Data returned: 8.19

Data request: What do you get for CCc1c2nc(-c3cc(S(C)(=O)=O)ccc3OCC(C)C)[nH]c(=O)c2nn1Cc1nccn1C [Example 9] ?
Data returned: 8.40

Data request: What do you get for CCCOc1ccc(S(=O)(=O)CC)cc1-c1nc2c(CC)nn(C[C@@H]3CCCN3C)c2c(=O)[nH]1 [Example 26] ?
Data returned: 7.74

Data request: What do you get for CCc1nn(C2CN(C(C)C)C2)c2c(=O)[nH]c(-c3cc(S(C)(=O)=O)ccc3OCC(C)C)nc12 [Example 20] ?
Data returned: 7.86

Data request: What do you get for CCCCOc1ccc(S(C)(=O)=O)cc1-c1nc2c(CC)n(CCN3CCOCC3)nc2c(=O)[nH]1 [Example 8] ?
Data returned: 8.00

Data request: What do you get for CCc1nn(Cc2cccnn2)c2c(=O)[nH]c(-c3cc(S(C)(=O)=O)ccc3OCC(C)C)nc12 [Example 16] ?
Data returned: 8.01

Data request: What do you get for CCCOc1ccc(S(C)(=O)=O)cc1-c1nc2c(CC)nn(C[C@@H]3CCCN3C)c2c(=O)[nH]1 [Example 18] ?
Data returned: 8.27
